Quick record: pIC50, human lysosomal β-galactosidase (Homo sapiens, UniProt P16278).
Just so you know, pIC50 here is -log10 of the concentration in molar units; reply with that number alone.

IN: Check the records and state pIC50 for "CN(C)c1cccc2c(S(=O)(=O)NCCCCCCNC(=O)CCCCCN3C[C@H](O)[C@@H](O)[C@@H](O)[C@H]3CO)cccc12"
OUT: 5.21

IN: State its pIC50 for this molecule: "CN(C)c1cccc2c(S(=O)(=O)NCCCCCCN(CCCCCCNS(=O)(=O)c3cccc4c(N(C)C)cccc34)C(=O)CCCCCN3C[C@H](O)[C@@H](O)[C@@H](O)[C@H]3CO)cccc12"
OUT: 6.07

IN: // fetch pIC50 given entry "CN(C)c1cccc2c(S(=O)(=O)NCCCCCCN(CCCCCCNS(=O)(=O)c3cccc4c(N(C)C)cccc34)CCCCCCN3C[C@H](O)[C@@H](O)[C@@H](O)[C@H]3CO)cccc12"
OUT: 5.57

IN: Give me measured pIC50, please, for this molecule: "CCCCCCCC(=O)N(CCCCCCNS(=O)(=O)c1cccc2c(N(C)C)cccc12)CCCCCCN1C[C@H](O)[C@@H](O)[C@@H](O)[C@H]1CO"
OUT: 5.74

* * *

value-type: pKi
By convention, pKi is the negative base-10 log of a molar concentration.

IN: Give the observed pKi of "CN(C)c1cccc2c(S(=O)(=O)NCCCCCCN(CCCCCCNS(=O)(=O)c3cccc4c(N(C)C)cccc34)C(=O)CCCCCN3C[C@H](O)[C@@H](O)[C@@H](O)[C@H]3CO)cccc12" for β-galactosidase from E. coli (Escherichia coli, UniProt P00722).
OUT: 6.54

IN: Tell me its pKi on β-galactosidase from E. coli (Escherichia coli, UniProt P00722): "CN(C)c1cccc2c(S(=O)(=O)NCCCCCCN(CCCCCCNS(=O)(=O)c3cccc4c(N(C)C)cccc34)CCCCCCN3C[C@H](O)[C@@H](O)[C@@H](O)[C@H]3CO)cccc12"
Sequence (P00722 2-1024 limits assumed): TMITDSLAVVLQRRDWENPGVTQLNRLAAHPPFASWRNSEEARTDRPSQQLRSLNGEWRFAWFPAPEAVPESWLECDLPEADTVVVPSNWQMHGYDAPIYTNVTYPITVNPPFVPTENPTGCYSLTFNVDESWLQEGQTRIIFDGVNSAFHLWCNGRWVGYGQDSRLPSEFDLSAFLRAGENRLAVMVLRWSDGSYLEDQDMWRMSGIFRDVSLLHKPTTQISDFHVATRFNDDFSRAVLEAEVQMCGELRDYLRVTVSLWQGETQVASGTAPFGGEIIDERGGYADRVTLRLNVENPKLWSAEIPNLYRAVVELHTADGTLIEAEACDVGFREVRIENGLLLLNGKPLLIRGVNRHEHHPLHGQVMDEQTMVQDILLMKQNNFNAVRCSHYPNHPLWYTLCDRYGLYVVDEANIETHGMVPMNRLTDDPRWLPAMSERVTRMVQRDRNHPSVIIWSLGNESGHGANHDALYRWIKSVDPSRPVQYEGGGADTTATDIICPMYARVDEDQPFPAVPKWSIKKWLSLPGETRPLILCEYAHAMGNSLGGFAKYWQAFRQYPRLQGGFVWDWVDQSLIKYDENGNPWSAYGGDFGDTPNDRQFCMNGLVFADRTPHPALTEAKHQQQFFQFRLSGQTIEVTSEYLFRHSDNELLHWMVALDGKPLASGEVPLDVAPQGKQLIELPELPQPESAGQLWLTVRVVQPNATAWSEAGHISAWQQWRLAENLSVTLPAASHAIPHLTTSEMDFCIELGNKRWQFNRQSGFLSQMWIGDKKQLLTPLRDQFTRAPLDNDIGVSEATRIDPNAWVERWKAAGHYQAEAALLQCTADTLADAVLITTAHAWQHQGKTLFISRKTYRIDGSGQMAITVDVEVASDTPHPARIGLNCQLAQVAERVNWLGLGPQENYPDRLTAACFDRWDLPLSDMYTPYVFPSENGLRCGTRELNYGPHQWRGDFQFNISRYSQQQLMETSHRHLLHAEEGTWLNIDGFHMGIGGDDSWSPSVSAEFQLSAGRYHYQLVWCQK
OUT: 6.92

IN: Give pKi; test system β-galactosidase from E. coli (Escherichia coli, UniProt P00722); compound "CCCCCCCC(=O)N(CCCCCCNS(=O)(=O)c1cccc2c(N(C)C)cccc12)CCCCCCN1C[C@H](O)[C@@H](O)[C@@H](O)[C@H]1CO"
OUT: 7.33

* * *

Please respond with reported Ki for every item in the list.
# target-of-assay: β-glucosidase/β-galactosidase from Agrobacterium sp. (Agrobacterium sp., UniProt P12614)
# Sequence (P12614 whole entry): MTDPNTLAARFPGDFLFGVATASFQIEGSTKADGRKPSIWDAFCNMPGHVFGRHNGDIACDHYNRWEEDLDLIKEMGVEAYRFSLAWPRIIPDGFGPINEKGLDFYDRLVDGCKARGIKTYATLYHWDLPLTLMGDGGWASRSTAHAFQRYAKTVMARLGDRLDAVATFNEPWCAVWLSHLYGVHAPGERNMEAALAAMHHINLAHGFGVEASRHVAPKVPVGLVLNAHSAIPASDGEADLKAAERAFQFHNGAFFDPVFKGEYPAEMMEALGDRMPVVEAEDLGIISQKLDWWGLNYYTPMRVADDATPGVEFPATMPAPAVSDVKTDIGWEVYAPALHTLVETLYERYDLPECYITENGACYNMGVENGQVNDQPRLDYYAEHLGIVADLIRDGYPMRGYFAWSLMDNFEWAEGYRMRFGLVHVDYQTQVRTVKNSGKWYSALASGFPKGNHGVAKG
# protocol-notes: Agrobacterium sp. β-galactosidase/-glucosidase inhibition
# output: bare number, implied unit nM

IN: # return Ki of "CN(C)c1cccc2c(S(=O)(=O)NCCCCCCN(CCCCCCNS(=O)(=O)c3cccc4c(N(C)C)cccc34)CCCCCCN3C[C@H](O)[C@@H](O)[C@@H](O)[C@H]3CO)cccc12" (system: β-glucosidase/β-galactosidase from Agrobacterium sp. (Agrobacterium sp., UniProt P12614))
OUT: 230

IN: Quote Ki with test system β-glucosidase/β-galactosidase from Agrobacterium sp. (Agrobacterium sp., UniProt P12614) for "CN(C)c1cccc2c(S(=O)(=O)NCCCCCCNC(=O)CCCCCN3C[C@H](O)[C@@H](O)[C@@H](O)[C@H]3CO)cccc12"
OUT: 450

IN: Give Ki for "CN(C)c1cccc2c(S(=O)(=O)NCCCCCCN(CCCCCCNS(=O)(=O)c3cccc4c(N(C)C)cccc34)C(=O)CCCCCN3C[C@H](O)[C@@H](O)[C@@H](O)[C@H]3CO)cccc12" tested on β-glucosidase/β-galactosidase from Agrobacterium sp. (Agrobacterium sp., UniProt P12614).
OUT: 630

IN: State, for β-glucosidase/β-galactosidase from Agrobacterium sp. (Agrobacterium sp., UniProt P12614), measured Ki of the compound listed here: "CCCCCCCC(=O)N(CCCCCCNS(=O)(=O)c1cccc2c(N(C)C)cccc12)CCCCCCN1C[C@H](O)[C@@H](O)[C@@H](O)[C@H]1CO"
OUT: 28

* * *

// Ki collected for α-galactosidase from green coffee beans (Coffea arabica, UniProt Q42656)
Report the value in nM with no unit label.

IN: Using α-galactosidase from green coffee beans (Coffea arabica, UniProt Q42656) as the test system, report measured Ki of CN(C)c1cccc2c(S(=O)(=O)NCCCCCCN(CCCCCCNS(=O)(=O)c3cccc4c(N(C)C)cccc34)CCCCCCN3C[C@H](O)[C@@H](O)[C@@H](O)[C@H]3CO)cccc12 [Compound 13] .
OUT: 530

IN: Provide Ki, recorded with α-galactosidase from green coffee beans (Coffea arabica, UniProt Q42656), of CN(C)c1cccc2c(S(=O)(=O)NCCCCCCN(CCCCCCNS(=O)(=O)c3cccc4c(N(C)C)cccc34)C(=O)CCCCCN3C[C@H](O)[C@@H](O)[C@@H](O)[C@H]3CO)cccc12 [Compound 9]
Sequence (Q42656 16-378): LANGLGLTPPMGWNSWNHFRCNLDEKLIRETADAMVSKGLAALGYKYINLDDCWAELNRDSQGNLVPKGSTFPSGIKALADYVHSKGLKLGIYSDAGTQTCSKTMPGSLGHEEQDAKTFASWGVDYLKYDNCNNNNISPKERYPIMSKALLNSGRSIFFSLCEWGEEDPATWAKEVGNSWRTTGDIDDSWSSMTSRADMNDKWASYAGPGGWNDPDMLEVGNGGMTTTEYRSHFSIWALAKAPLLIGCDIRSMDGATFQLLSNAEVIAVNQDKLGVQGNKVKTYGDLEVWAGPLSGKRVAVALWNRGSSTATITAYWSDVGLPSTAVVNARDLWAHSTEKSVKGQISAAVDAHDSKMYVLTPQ
OUT: 2600

IN: Please report the measured Ki for CCCCCCCC(=O)N(CCCCCCNS(=O)(=O)c1cccc2c(N(C)C)cccc12)CCCCCCN1C[C@H](O)[C@@H](O)[C@@H](O)[C@H]1CO [Compound 15] tested on α-galactosidase from green coffee beans (Coffea arabica, UniProt Q42656).
OUT: 200
